assay-info: Antiproliferative activity against human A549 cells after 72 hrs by MTT assay
Type: functional, cell-based
condition-notes: A549, 72 h
measured-parameter: IC50 (µM)
Your answer is read as µM, so omit the unit and give the number.

Ask: Value lookup for IC50; key = "O=c1c2nc3ccccc3nc2cc(-c2ccccc2)n1-c1ccccc1"
Result: 46.4

Ask: Value lookup for IC50; key = "CCOC(=O)c1nc2ccccc2nc1C#Cc1ccccc1OC"
Result: 7.9

Ask: Value lookup for IC50; key = "CCOC(=O)c1nc2ccccc2nc1C#CC1CCCC1"
Result: 11.2

Ask: Value lookup for IC50; key = "O=c1c2nc3ccccc3nc2cc(-c2ccccc2)n1-c1ccc(Cl)cc1"
Result: 43

Ask: Value lookup for IC50; key = "CCOC(=O)c1nc2ccccc2nc1C#Cc1ccccc1C"
Result: 27

Ask: Value lookup for IC50; key = "Cc1ccc(-c2cc3nc4ccccc4nc3c(=O)n2-c2ccccc2)cc1"
Result: 39.6

Origin of the recorded values: ChEMBL document CHEMBL3875176
